assay: Solubility of compound in FaSSIF at pH 6.5 measured after 4 hrs by HPLC-UV analysis; assay type: physicochemical
measuredQuantity: solubility at 4 h

Looking up Fc1cnc2nc(-c3nc(C(F)(F)F)n[nH]3)c(-c3c[nH]cn3)n2c1 , I found its solubility at 4 h recorded as 5 µg/mL

Looking up O=P(O)(O)OCn1nc(C(F)(F)F)nc1-c1nc2ncc(F)cn2c1-c1cnc[nH]1 , I found its solubility at 4 h recorded as > 1000 µg/mL

Looking up O=C(CCCOP(=O)(O)O)OCn1cnc(-c2c(-c3nc(C(F)(F)F)nn3COC(=O)CCCOP(=O)(O)O)nc3ncccn23)c1.O=C(O)C(F)(F)F , I found its solubility at 4 h recorded as > 1000 µg/mL

Looking up FC(F)(F)c1n[nH]c(-c2nc3ncccn3c2-c2c[nH]cn2)n1 , I found its solubility at 4 h recorded as 4 µg/mL

Every entry's value here was drawn from ChEMBL document CHEMBL6109165.
